Test system: MRCKB
Construct: gene CDC42BPB
Details: concentration: 1 μM, replicates: in singlicate; n = 1;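 further: KINOMEscan kinase panel screen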
Metric: %Inh (%)
Dear colleague, please return just the value in %, with no unit written.

Field: example entries. Status: answers known.
| Compound | Metric | Result |
| --- | --- | --- |
| O=C(Nc1cccc(-c2nn3ncccc3c2-c2ccnc(Nc3ccccc3)n2)c1)c1c(F)cccc1F | %Inh | 88 |
| CC(C)c1nc(-c2cccc(NS(=O)(=O)c3c(F)cccc3F)c2F)c(-c2ccnc(Nc3ccc(N4CCOCC4)nc3)n2)s1 | %Inh | 0 |
| CCn1c(-c2nonc2N)nc2c(C#CC(C)(C)O)ncc(OCCCCN)c21.O=C(O)C(F)(F)F.O=C(O)C(F)(F)F | %Inh | 5 |
| COC(=O)Nc1nc2cc(Oc3ccc(NC(=O)Nc4cc(C(F)(F)F)ccc4F)cn3)ccc2[nH]1.Cl.Cl | %Inh | 0 |
| CCn1c(-c2nonc2N)nc2c(C#CC(C)(C)O)nc(OC[C@H](N)c3ccccc3)cc21 | %Inh | 5 |

%Inh of COc1cccc(C2=C(Nc3ccc(Cl)c(C(=O)O)c3)C(=O)NC2=O)c1 , assay on MRCKB, is 0

%Inh of COCCOCCOc1cc2ncc3c4ccc(C#N)cc4[nH]c3c2cc1OC , assay on MRCKB, is 24

%Inh of CCc1ccc(-c2ccc3c(c2)-c2c(cnn2C)S(=O)(=O)N3C)cc1 , assay on MRCKB, is 0

%Inh of COc1cc2c(cc1OCCN1CCNCC1)ncc1c3ccc(C#N)cc3[nH]c21 , assay on MRCKB, is 0

%Inh of CC(=O)N1CCN(c2ccc(Nc3nccc(-c4sc(C(C)C)nc4-c4cccc(NS(=O)(=O)c5cccc(Cl)c5)c4)n3)cn2)CC1 , assay on MRCKB, is 0

%Inh of C[C@@H]1CC[C@@H](C(=O)Nc2ccccc2)CN1c1cc(-c2ccc3c(N)n[nH]c3c2)nc(N)n1 , assay on MRCKB, is 0

%Inh of O=c1[nH]cc(-c2ccc(N3CCOCC3)cc2)c2sc(-c3cn[nH]c3)cc12 , assay on MRCKB, is 0

%Inh of COc1cc(Nc2nccc(-c3c(-c4cccc(NC(=O)c5c(F)cccc5F)c4)nn4ccccc34)n2)cc(OC)c1OC , assay on MRCKB, is 0

---

Tested on: NEK11
Details: concentration: 1 μM, replicates: in singlicate; n = 1
Metric: %Inh (%)
Dear colleague, please return just the value in %, with no unit written.

| Compound | Target Entity | Result |
| --- | --- | --- |
| Cl.NC(=O)c1cccc(Nc2nccc(Nc3ccc(Oc4c(Cl)cccc4Cl)c(Cl)c3)n2)c1 | NEK11 | 0 |
| COc1ccc(Nc2nccc(NCCNC(=O)c3cc4ccccc4s3)n2)cc1 | NEK11 | 3 |
| CCn1c(-c2nonc2N)nc2c(C#CC(C)(C)O)nc(OC[C@H](N)c3ccccc3)cc21 | NEK11 | 0 |
| FC(F)(F)c1ccc(/C=C/c2cncnc2Nc2ccc3[nH]c(Cc4ccccc4)nc3c2)cc1 | NEK11 | 9 |
| Cc1occc1-c1ncc(OC[C@@H](N)Cc2c[nH]c3ccccc23)cc1-c1ccc2[nH]nc(C)c2c1.O=C(O)C(F)(F)F | NEK11 | 0 |
| Clc1ccc(-c2nn3ncccc3c2-c2ccnc(Nc3ccc4c(c3)OCCO4)n2)cc1 | NEK11 | 0 |
| Cl.Cl.NCC(NCc1ccc(-c2ccnc3[nH]ccc23)s1)c1ccccc1 (stereo not shown) | NEK11 | 13 |
| Cc1cccc(NC(=O)Nc2ccc(Oc3ncnc4ccn(C)c34)cc2)c1 | NEK11 | 0 |

// recorded %Inh for NCCCC(NC(=O)c1cc(Br)c(-c2ccnc3[nH]ccc23)s1)c1ccccc1.O=C(O)C(F)(F)F.O=C(O)C(F)(F)F (stereo not shown) : 0

// recorded %Inh for CC(=O)N1CCN(c2ccc(Nc3nccc(-c4sc(C(C)C)nc4-c4cccc(NS(=O)(=O)c5cccc(Cl)c5)c4)n3)cn2)CC1 : 90

// recorded %Inh for Cl.Cl.NCC(C(=O)Nc1cc(Br)c(-c2ccnc3[nH]ccc23)s1)c1ccccc1 (stereo not shown) : 0

// recorded %Inh for CSc1cccc2c(-c3ccncn3)c(-c3ccc(F)cc3)nn12 : 0

// recorded %Inh for O=C(O)C(F)(F)F.O=C(O)C(F)(F)F.O=c1[nH]ccc2nc(N[C@@H]3CCCNC3)nc(Nc3ccc(S(=O)(=O)N4CCOCC4)cc3)c12 : 0

// recorded %Inh for COc1cccc(NC(=O)NC2CCN(c3ccnc(Nc4cc(OC)c(OC)c(OC)c4)n3)C2)c1 (stereo not shown) : 0

// recorded %Inh for CN(C)Cc1ccc(-c2ccc3c(Nc4ccc(Oc5ccccn5)cc4)ccnc3c2)o1 : 8

// recorded %Inh for Cl.c1ccc(-c2ccc3c(Nc4ccc5[nH]ccc5c4)ccnc3c2)nc1 : 0

---

Tested on: PRKCQ
Details: concentration: 1 μM, replicates: in singlicate; n = 1
Collected %Inh values appear next to each entry.
Your answer should be a number followed by the unit of measure.

| Compound | Metric | Result |
| --- | --- | --- |
| CCS(=O)(=O)c1ccc(OC)c(Nc2nccc(-c3c(-c4cccc(NC(=O)c5c(F)cccc5F)c4)nn4ncccc34)n2)c1 | %Inh | 27% |

// recorded %Inh for Fc1ccc(-c2ncn(C3CCNCC3)c2-c2ccnc(Oc3ccc(-c4ccccc4)cc3)n2)cc1 : 0%

// recorded %Inh for CN(c1ccc(NC(=O)Nc2cc(C(F)(F)F)ccc2F)cc1)c1ccnc(Nc2ccc(S(N)(=O)=O)cc2)n1 : 9%

---

System: PAK2
Details: concentration: 1 μM, replicates: in singlicate; n = 1
Collected %Inh values appear next to each entry.
Dear colleague, please return just the value in %, with no unit written.

Field: example entries. Status: answers known.
| Compound | Metric | Result |
| --- | --- | --- |
| Cn1cc(-c2ccc3c(c2)CCN3C(=O)Cc2cccc(F)c2)c2c(N)ncnc21 | %Inh | 0 |
| COc1ccc(-c2coc3ccc(-c4nnc(SCc5ccc(OC)c(C(F)(F)F)c5)o4)cc23)cc1 | %Inh | 3 |
| Cl.Cl.NCC(C(=O)Nc1cc(Br)c(-c2ccnc3[nH]ccc23)s1)c1ccccc1 (stereo not shown) | %Inh | 32 |
| COc1cc(Nc2nccc(N3CCC(NC(=O)c4cc5ccccc5s4)C3)n2)cc(OC)c1OC (stereo not shown) | %Inh | 2 |
| CC(C)(C)c1ccc2nccc(Nc3cccc(O)c3)c2c1 | %Inh | 0 |

// recorded %Inh for Cc1ccc(C)c(NC(=O)NC2CCN(c3ccnc(Nc4ccc(F)cc4)n3)C2)c1 (stereo not shown) : 2

// recorded %Inh for COc1cccc(C2=C(Nc3ccc(Cl)c(C(=O)O)c3)C(=O)NC2=O)c1 : 28

// recorded %Inh for CC(=O)N1CCN(c2ccc(Nc3nccc(-c4sc(C(C)C)nc4-c4cccc(NS(=O)(=O)c5cccc(Cl)c5)c4)n3)cn2)CC1 : 90.1

// recorded %Inh for Nc1ncc(-c2cccnc2)c2scc(-c3ccc4c(c3)CCN4C(=O)Cc3ccccc3)c12 : 19

// recorded %Inh for O=C(Nc1cccc(-c2nn3ccccc3c2-c2ccnc(Nc3cccc(C(F)(F)F)c3)n2)c1)c1c(F)cccc1F : 6

// recorded %Inh for Cc1cccc(Nc2nc(N[C@H]3CCNC3)ncc2C(N)=O)c1.Cl : 70

// recorded %Inh for Cn1cc(-c2ccc3c(c2)CCN3C(=O)Cc2cccc(Cl)c2)c2c(N)ncnc21 : 22

// recorded %Inh for c1ccc(Oc2ccc(Nc3ccnc4cc(-c5ccc(CNCCN6CCOCC6)o5)ccc34)cc2)nc1 : 0

// recorded %Inh for COc1ccc(Nc2nccc(N3CCC(NC(=O)Nc4cccc(OC)c4)C3)n2)cc1 (stereo not shown) : 27

---

Test system: GRK4
Details: concentration: 1 μM, replicates: in singlicate; n = 1
# note: boundary value 8% maps to n; %Inh below it maps to y

For orientation, consider the following solved cases.
| Compound | Qualitative Label |
| --- | --- |
| Oc1cc(Nc2ccnc3cc(I)ccc23)ccc1F | n |
| NCCCC(NC(=O)c1cc(Br)c(-c2ccnc3[nH]ccc23)s1)c1ccccc1.O=C(O)C(F)(F)F.O=C(O)C(F)(F)F (centres unmarked) | n |

Check if %Inh falls below 8% for CC(=O)Nc1nc2cnc(Nc3cc(NC(=O)c4cccc(C5(C#N)CC5)c4Cl)ccc3C)nc2s1 . n

---

Collected %Inh values appear next to each entry.
System: HIPK3
Details: concentration: 1 μM, replicates: in singlicate; n = 1
Dear colleague, please return just the value in %, with no unit written.

Field: example entries. Status: answers known.
| Molecule | Unit Tag | %Inh |
| --- | --- | --- |
| Cc1cccc(NC(=O)Nc2ccc(Oc3ncnc4ccn(C)c34)cc2)c1 | % | 0 |
| Cl.Cl.NCC(C(=O)Nc1cc(Br)c(-c2ccnc3[nH]ccc23)s1)c1ccccc1 (stereo not shown) | % | 55 |
| O=C(Nc1ccccc1F)NC1CCN(c2ccnc(Nc3ccc(F)cc3)n2)CC1 | % | 16 |

// recorded %Inh for COc1cccc(C2=C(Nc3ccc(Cl)c(C(=O)O)c3)C(=O)NC2=O)c1 : 11
